Experiment: POP concentration in lipids estimated from concentrations measured in prostheses
Assay type: in vivo, human
Details: estimated from silicone prosthesis concentrations, silicone density of 1.0 and Klip-sil values
result-type: Estimated Clipid
Report field: quantity (unit follows the number).

> print(dat)
                                   molecule  data.value
1  Clc1ccc(C(c2ccccc2Cl)C(Cl)(Cl)Cl)cc1 (stereo not shown) [o,p′-DDT]    0.8 ng/g
2  Clc1ccc(-c2cc(Cl)c(Cl)c(Cl)c2Cl)cc1Cl [CB-156]    4.5 ng/g
3  Clc1ccc(-c2ccc(Cl)c(Cl)c2Cl)cc1Cl [CB-105]    1.5 ng/g
4  Clc1cc(Cl)c(-c2cc(Cl)c(Cl)c(Cl)c2Cl)cc1Cl [CB-180]    4.2 ng/g

The reported value for Clc1ccc(-c2cc(Cl)c(Cl)cc2Cl)cc1Cl [CB-118] in terms of Estimated Clipid is 7.5 ng/g

The reported value for Clc1cc(Cl)c(-c2cc(Cl)c(Cl)cc2Cl)cc1Cl [CB-153] in terms of Estimated Clipid is 62 ng/g

The reported value for Clc1cc(Cl)c(-c2ccc(Cl)c(Cl)c2Cl)cc1Cl [CB-138] in terms of Estimated Clipid is 27 ng/g

The reported value for Clc1ccc(Cl)c(-c2cc(Cl)c(Cl)cc2Cl)c1 [CB-101] in terms of Estimated Clipid is 0.5 ng/g

The reported value for Clc1c(Cl)c(Cl)c(Cl)c(Cl)c1Cl [HCB, hexachlorobenzene] in terms of Estimated Clipid is 10.9 ng/g

The reported value for Clc1ccc(C(c2ccc(Cl)cc2)C(Cl)(Cl)Cl)cc1 [p,p′-DDT] in terms of Estimated Clipid is 5.7 ng/g

###

The entries below come with measured Prosthesis contaminant mass, Mean values attached.
Assay: Contaminant masses in explanted silicone breast prostheses (acetone extraction, GC-MS)
Assay type: in vivo, human
Conditions: Sample 2, duplicate explanted prostheses analysed in the same batch
Numbers only here, please. The scale is ng sample^−1.

> print(dat)
                                    compound  data.value
 1  Clc1ccc(-c2cc(Cl)c(Cl)c(Cl)c2Cl)cc1Cl [CB-156]          15
 2  Clc1cc(Cl)c(-c2cc(Cl)c(Cl)cc2Cl)cc1Cl [CB-153]         252
 3  Clc1c(Cl)c(Cl)c(Cl)c(Cl)c1Cl [HCB, hexachlorobenzene]         181
 4  Brc1ccc(Oc2ccc(Br)c(Br)c2)cc1Br [BDE-77]         0.8
 5  Clc1ccc(C(c2ccc(Cl)cc2)C(Cl)(Cl)Cl)cc1 [p,p′-DDT]          38
 6  Brc1c(Br)c(Br)c(Oc2c(Br)c(Br)c(Br)c(Br)c2Br)c(Br)c1Br [BDE-209]         6.5
 7  Clc1ccc(-c2ccc(Cl)c(Cl)c2Cl)cc1Cl [CB-105]          11
 8  Brc1ccc(Oc2ccc(Br)cc2Br)c(Br)c1 [BDE-47]         1.6
 9  Brc1cc(Br)c(Oc2cc(Br)c(Br)cc2Br)c(Br)c1 [BDE-154]         0.5
10  Clc1ccc(Cl)c(-c2cc(Cl)c(Cl)cc2Cl)c1 [CB-101]         7.6

The reported value for Brc1cc(Br)c(Oc2cc(Br)c(Br)cc2Br)cc1Br [BDE-153] in terms of Prosthesis contaminant mass, Mean is 3.7

The reported value for Brc1ccc(Oc2ccc(Br)cc2Br)cc1 [BDE-28] in terms of Prosthesis contaminant mass, Mean is 0.5
